- TEST TARGET: Signal transducer and activator of transcription 3 (Homo sapiens, UniProt P40763)
- Sequence (P40763 whole entry): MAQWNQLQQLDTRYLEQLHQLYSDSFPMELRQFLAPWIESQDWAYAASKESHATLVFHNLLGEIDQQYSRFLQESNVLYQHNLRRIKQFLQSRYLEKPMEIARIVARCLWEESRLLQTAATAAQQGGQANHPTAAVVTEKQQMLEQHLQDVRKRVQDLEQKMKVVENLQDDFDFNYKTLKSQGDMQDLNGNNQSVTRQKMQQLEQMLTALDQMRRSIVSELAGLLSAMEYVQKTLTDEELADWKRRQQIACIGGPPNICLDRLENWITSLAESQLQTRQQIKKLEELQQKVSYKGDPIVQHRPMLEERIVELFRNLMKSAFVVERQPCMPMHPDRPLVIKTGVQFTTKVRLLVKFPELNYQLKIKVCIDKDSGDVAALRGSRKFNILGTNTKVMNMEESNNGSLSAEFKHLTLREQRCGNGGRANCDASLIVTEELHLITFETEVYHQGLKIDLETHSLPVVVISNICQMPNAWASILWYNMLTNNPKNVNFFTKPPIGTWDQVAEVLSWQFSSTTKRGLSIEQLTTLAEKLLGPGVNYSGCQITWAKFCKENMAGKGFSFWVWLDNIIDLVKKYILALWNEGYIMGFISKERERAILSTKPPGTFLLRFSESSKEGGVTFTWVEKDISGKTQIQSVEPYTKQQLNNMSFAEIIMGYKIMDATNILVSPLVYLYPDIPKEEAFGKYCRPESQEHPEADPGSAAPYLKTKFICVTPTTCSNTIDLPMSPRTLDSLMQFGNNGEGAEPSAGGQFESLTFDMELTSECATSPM
- PROTOCOL DETAILS: Inhibition of […] activation in human AD293 cells incubated […] for 16 hrs followed by compound addition measured after 4 hrs by luciferase reporter gene assay
- Type: cell-based
QUANTITY MEASURED: EC50 (µM)

C=C1CC[C@H]2[C@@](C)(CCC(=O)[C@@]2(C)CO[Si](C)(C)C(C)(C)C)[C@@H]1C/C=C1/C(=O)OC[C@@H]1OC(C)=O 7.98
C=C1CC[C@H]2[C@@](C)(CCC(=O)[C@@]2(C)CO[Si](C)(C)C(C)(C)C)[C@@H]1C/C=C1/C(=O)OC[C@H]1O 7.75
